Reported Emax values for a set of compounds
Target: mGFP-K-RASG12V (Homo sapiens (Human), UniProt P01116, G12V)
Assay: K-Ras mislocalization assay (confocal microscopy, Manders coefficient)
Format: cell-based
Set-up: key: Manders coefficient: fraction of mCherry-CAAX co-localizing with GFP-K-Ras
Conditions: maximal effect, Manders coefficient; MDCK cells, 48 h
parameter.measured: Emax

> print(dat)
                                   compound  parameter.measured  reported
1  COc1ccc([C@@H](C)N(CC=C(c2ccccc2)c2ccccc2)CCN2CCCC2)cc1                Emax      0.85
2  COC(=O)[C@H](CC(C)C)NC(=O)[C@H](NCC=C(c1ccccc1)c1ccccc1)c1ccccc1                Emax     0.718
3  COc1ccc([C@@H](C)N(CC=C(c2ccccc2)c2ccccc2)CCN2CCN(C(=O)C(C)F)CC2)cc1 (stereo partly shown)                Emax     0.825
4  C[C@H](c1ccc(F)cc1)N(CCN1CCCC1)C(=O)c1ccc(C(F)(F)F)cc1                Emax     0.662
5  COc1ccc([C@@H](C)N(CC=C(c2ccccc2)c2ccccc2)CCN2CC2)cc1                Emax     0.754
6  C(CN1CCC(c2ccccc2)CC1)=C(c1ccccc1)c1ccccc1                Emax     0.893
7  COc1ccc([C@@H](C)N(CC=C(c2ccccc2)c2ccccc2)CC=C(c2ccccc2)c2ccccc2)cc1 [Compound 7, reference compound]                Emax      0.74

* * *

System: MDCK cells co-expressing GFP-K-RASG12V and mCherry-CAAX
Test: Cytotoxicity in mislocalization screen (death of all cells in well)
Conditions: drug caused death of all cells in well at 30 μM
parameter.measured: Cytotoxic at 30 μM

> print(dat)
                                    compound  reported
 1  CC(=O)NNC(=O)[C@H](NCC=C(c1ccccc1)c1ccccc1)c1ccccc1 [NY0568]        No
 2  C(CN1CCc2ccccc2C1)=C(c1ccccc1)c1ccccc1 [NY0221]        No
 3  COc1ccc([C@@H](C)N(CC=C(c2ccccc2)c2ccccc2)CCCO)cc1 [NY0479]        No
 4  C(CNC1(c2ccccc2)CC1)=C(c1ccccc1)c1ccccc1 [NY040402]        No
 5  C(CN[C@@H]1C[C@H]1c1ccccc1)=C(c1ccccc1)c1ccccc1 [NY022602]        No
 6  COc1ccc([C@@H](C)N(CC=C(c2ccccc2)c2ccccc2)C(C)=O)cc1 [NY0222]       Yes
 7  CCN(CC)CCN(CC=C(c1ccccc1)c1ccccc1)[C@H](C)c1ccc(OC)cc1 [NY0358]       Yes
 8  COc1ccc([C@@H](C)N(CC=C(c2ccccc2)c2ccccc2)CCN2CCNCC2)cc1 [NY347]       Yes
 9  COc1ccccc1[C@@H](C)N(CC=C(c1ccccc1)c1ccccc1)CCN1CCN(C)CC1 [NY0366]       Yes
10  C(CN(CCN1CCCC1)C1(c2ccccc2)CC1)=C(c1ccccc1)c1ccccc1 [NY0444]       Yes
11  C[C@@H](NCC(=O)N1c2ccccc2Sc2ccccc21)c1ccccc1 [NY0572]        No
12  O=C(O)[C@H](NCC=C(c1ccccc1)c1ccccc1)c1ccccc1 [NY0555]        No
13  COc1ccc([C@@H](C)N(CC=C(c2ccccc2)c2ccccc2)CCN2CCN(C(=O)Nc3ccccc3)CC2)cc1 [NY352]       Yes
14  Fc1ccc2c(c1)CCCN2CC=C(c1ccccc1)c1ccccc1 [NY293]        No
15  C=CC(=O)N1CCN(CCN(CC=C(c2ccccc2)c2ccccc2)[C@H](C)c2ccc(OC)cc2)CC1 [NY0357a]       Yes

* * *

Reported IC50 values for a set of molecules
Target: mGFP-K-RASG12V (Homo sapiens (Human), UniProt P01116, G12V)
Assay: K-Ras mislocalization assay (confocal microscopy, Manders coefficient)
Type: cell-based
Conditions: MDCK cells, 48 h treatment; read-out: IC50 (μM), KRASG12V mislocalization
parameter.measured: IC50 (µM)

> print(dat)
                                    molecule                            assayed.target  reported
 1  C[C@H](c1ccc(F)cc1)N(C/C=C(/c1ccc(F)cc1)c1ccc(C(F)(F)F)cc1)CCN1CCCC1  mGFP-K-RASG12V (Homo sapiens (Human), UniProt P01116, G12V)      1.86
 2  C=CCN(CC=C(c1ccccc1)c1ccccc1)[C@H](C)c1ccc(OC)cc1  mGFP-K-RASG12V (Homo sapiens (Human), UniProt P01116, G12V)        13
 3  O=C(c1cnc2ccccc2n1)N(CC=C(c1ccccc1)c1ccccc1)CCN1CCCC1  mGFP-K-RASG12V (Homo sapiens (Human), UniProt P01116, G12V)      4.52
 4  C[C@H](c1ccc(Cl)cc1)N(CC=C(c1ccccc1)c1ccccc1)CCN1CCN(C)CC1  mGFP-K-RASG12V (Homo sapiens (Human), UniProt P01116, G12V)       3.8
 5  COc1ccc([C@@H](C)N(CC=C(c2ccccc2)c2ccccc2)CCN2CCN(C(=O)OC(C)(C)C)CC2)cc1  mGFP-K-RASG12V (Homo sapiens (Human), UniProt P01116, G12V)     0.329
 6  COc1ccc([C@@H](C)N(CC=C(c2ccccc2)c2ccccc2)C(=O)CN2CCCC2)cc1  mGFP-K-RASG12V (Homo sapiens (Human), UniProt P01116, G12V)     0.553
 7  COc1ccc([C@H](C)N(CC=C(c2ccccc2)c2ccccc2)CCN(C)C)cc1  mGFP-K-RASG12V (Homo sapiens (Human), UniProt P01116, G12V)      4.69
 8  O=C(OCc1ccccc1)N(CC=C(c1ccccc1)c1ccccc1)CCN1CCCC1  mGFP-K-RASG12V (Homo sapiens (Human), UniProt P01116, G12V)      6.03
 9  COc1ccc([C@@H](C)N(CC=C(c2ccccc2)c2ccccc2)C(=O)Oc2ccccc2)cc1  mGFP-K-RASG12V (Homo sapiens (Human), UniProt P01116, G12V)      0.43
10  COc1ccc([C@@H](C)N(CC=C(c2ccccc2)c2ccccc2)CCN2CCOCC2)cc1  mGFP-K-RASG12V (Homo sapiens (Human), UniProt P01116, G12V)       4.4
11  COc1ccc([C@@H](C)N(CC=C(c2ccccc2)c2ccccc2)CCN(C)C)cc1  mGFP-K-RASG12V (Homo sapiens (Human), UniProt P01116, G12V)      11.2
12  COc1ccc([C@@H](C)N(CC=C(c2ccccc2)c2ccccc2)CC=C(c2ccccc2)c2ccccc2)cc1 [Compound 7, reference compound]  mGFP-K-RASG12V (Homo sapiens (Human), UniProt P01116, G12V)       0.5
13  O=C(c1ccc(F)cc1)N(CC=C(c1ccccc1)c1ccccc1)CCN1CCCC1  mGFP-K-RASG12V (Homo sapiens (Human), UniProt P01116, G12V)       4.8
14  COc1ccc([C@@H](C)N(CC=C(c2ccccc2)c2ccccc2)CCN2CCN(S(C)(=O)=O)CC2)cc1  mGFP-K-RASG12V (Homo sapiens (Human), UniProt P01116, G12V)      1.11
15  Brc1cccc(CN(CC=C(c2ccccc2)c2ccccc2)CCN2CCCC2)n1  mGFP-K-RASG12V (Homo sapiens (Human), UniProt P01116, G12V)      2.82
16  COc1ccccc1[C@@H](C)N(CC=C(c1ccccc1)c1ccccc1)CCN1CCN(C)CC1  mGFP-K-RASG12V (Homo sapiens (Human), UniProt P01116, G12V)      3.81
17  CCN(CC=C(c1ccccc1)c1ccccc1)[C@H](C)c1ccc(OC)cc1  mGFP-K-RASG12V (Homo sapiens (Human), UniProt P01116, G12V)      10.6
18  C[C@H](c1ccc([N+](=O)[O-])cc1)N(CC=C(c1ccccc1)c1ccccc1)CCN1CCN(C)CC1  mGFP-K-RASG12V (Homo sapiens (Human), UniProt P01116, G12V)       5.2
19  C=CC(=O)N1CCN(CCN(CC=C(c2ccccc2)c2ccccc2)[C@H](C)c2ccc(OC)cc2)CC1 [NY0357a]  mGFP-K-RASG12V (Homo sapiens (Human), UniProt P01116, G12V)      2.55
20  COc1ccc([C@H](C)N(CC=C(c2ccccc2)c2ccccc2)CCN2CCN(C)CC2)cc1  mGFP-K-RASG12V (Homo sapiens (Human), UniProt P01116, G12V)      1.24
21  COc1cccc([C@@H](C)N(CC=C(c2ccccc2)c2ccccc2)CCN2CCN(C)CC2)c1  mGFP-K-RASG12V (Homo sapiens (Human), UniProt P01116, G12V)      2.81
22  COc1ccc(/C(=C\CN(CCN2CCCC2)[C@H](C)c2ccc(F)cc2)c2ccc(F)cc2)cc1  mGFP-K-RASG12V (Homo sapiens (Human), UniProt P01116, G12V)     0.319

Entry source: patent US12043602B2
